Target: Ileal sodium/bile acid cotransporter (Mus musculus)
Sequence (P70172 whole entry): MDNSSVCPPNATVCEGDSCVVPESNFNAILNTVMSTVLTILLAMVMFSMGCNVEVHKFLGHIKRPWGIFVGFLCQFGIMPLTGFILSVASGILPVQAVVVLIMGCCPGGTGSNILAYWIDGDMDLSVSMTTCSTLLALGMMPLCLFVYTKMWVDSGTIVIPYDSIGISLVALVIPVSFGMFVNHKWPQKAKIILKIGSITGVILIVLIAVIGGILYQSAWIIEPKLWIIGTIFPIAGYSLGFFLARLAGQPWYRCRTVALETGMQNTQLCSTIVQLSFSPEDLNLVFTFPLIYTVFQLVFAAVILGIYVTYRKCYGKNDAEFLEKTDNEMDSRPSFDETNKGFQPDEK
Test: TP_TRANSPORTER: inhibition of Taurocholate accumulation in ASBT-expressing HEK293 cells
measured attribute: pKi
Kindly note that pKi refers to -log10 of the concentration in mol/L and answer with the value alone.

pKi in this record for `CCCC[C@]1(CC)CS(=O)(=O)c2ccccc2[C@@H](c2ccccc2)N1` : 7.17
